system: Transporter (Macaca mulatta)
Sequence (Q7JHP9 whole entry): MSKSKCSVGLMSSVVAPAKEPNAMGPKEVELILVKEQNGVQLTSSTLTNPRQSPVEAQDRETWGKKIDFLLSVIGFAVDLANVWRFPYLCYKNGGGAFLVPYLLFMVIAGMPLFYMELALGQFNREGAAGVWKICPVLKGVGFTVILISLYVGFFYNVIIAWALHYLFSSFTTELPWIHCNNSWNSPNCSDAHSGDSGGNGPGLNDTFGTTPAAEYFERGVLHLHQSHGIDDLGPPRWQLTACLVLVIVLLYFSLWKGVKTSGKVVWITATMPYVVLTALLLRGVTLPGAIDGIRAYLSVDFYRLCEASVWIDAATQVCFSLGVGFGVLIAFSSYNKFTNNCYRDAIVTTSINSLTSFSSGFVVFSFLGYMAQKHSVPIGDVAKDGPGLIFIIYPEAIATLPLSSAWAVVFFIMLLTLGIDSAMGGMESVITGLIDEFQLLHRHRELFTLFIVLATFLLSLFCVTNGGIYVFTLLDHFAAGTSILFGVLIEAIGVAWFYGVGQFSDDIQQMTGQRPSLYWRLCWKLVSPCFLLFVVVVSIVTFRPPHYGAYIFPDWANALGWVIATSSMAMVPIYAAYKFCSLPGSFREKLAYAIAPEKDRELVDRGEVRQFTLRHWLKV
pIC50: −log10 of the molar value.
Kindly return t if reported pIC50 is no lower than 8; return f if it is lower.

Record excerpt, results attached:
>>> discrete_label("COC(=O)[C@@H]1C2CCC(C[C@@H]1c1ccc(Cl)c(Cl)c1)O2 (stereo partly drawn)")
"t"
>>> discrete_label("COC(=O)[C@@H]1[C@H]2CCC(C[C@H]1c1ccc(Cl)c(Cl)c1)N2C")
"t"
>>> discrete_label("COC(=O)[C@@H]1C2CCC(C[C@H]1c1ccc(F)cc1)S2 (stereo partly drawn)")
"f"
>>> discrete_label("COC(=O)C1=C(c2ccc(F)cc2)CC2CCC1S2 (stereo not drawn)")
"f"
>>> discrete_label("COC(=O)[C@H]1[C@@H](c2ccc(Cl)c(Cl)c2)CC2CC[C@H]1N2C")
"t"

Lab note: next compound to report on.
QUERY: Check the entry `COC(=O)[C@H]1[C@@H](c2ccc(Cl)c(Cl)c2)CC2CC[C@H]1O2` : does pIC50 equal or exceed 8?
RESULT: t

---

Species: Macaca mulatta
measurement_protocol: Selectivity for rhesus monkey DAT over rhesus monkey SERT
readout_label: Ratio IC50
// no unit string in output, number only

>>> reported_value("COC(=O)[C@@H]1C2CCC(C[C@@H]1c1ccc(Cl)c(F)c1)S2 (stereo partly specified)")
3
>>> reported_value("COC(=O)C1=C(c2ccc(Cl)c(Cl)c2)CC2CC[C@@H]1N2C")
4
>>> reported_value("COC(=O)[C@@H]1C2CCC(C[C@@H]1c1ccc(Br)cc1)S2 (stereo partly specified)")
2.3

Query compound follows.
QUERY: Look up and state reported Ratio IC50 for `COC(=O)[C@H]1[C@@H](c2ccc(Cl)c(Cl)c2)CC2CC[C@H]1S2`
RESULT: 1.5

---

system: Sodium-dependent serotonin transporter (Macaca mulatta)
Class field: derived from IC50; ranges low bin (below 30 nM), mid bin (30 nM to below 400 nM), high bin (400 nM or more)

>>> discrete_label("COC(=O)[C@@H]1[C@H]2[C@H](O)CC(C[C@@H]1c1ccc(Cl)c(Cl)c1)N2C")
"low bin"
>>> discrete_label("COC(=O)[C@H]1[C@@H](c2ccc(Cl)c(Cl)c2)CC2CC[C@H]1S2")
"low bin"
>>> discrete_label("COC(=O)[C@@H]1C2CCC(C[C@@H]1c1ccc(Cl)c(Cl)c1)S2 (some centres not stated)")
"low bin"
>>> discrete_label("COC(=O)C1=C(c2ccc(Cl)c(Cl)c2)CC2CC[C@H]1N2C")
"high bin"
>>> discrete_label("COC(=O)[C@@H]1C2CCC(C[C@H]1c1ccc3ccccc3c1)S2 (some centres not stated)")
"mid bin"
>>> discrete_label("COC(=O)C1=C(c2ccc(Cl)cc2)CC2CCC1S2 (configuration not stated)")
"high bin"
>>> discrete_label("COC(=O)[C@@H]1[C@@H]2[C@H](O)CC(C[C@H]1c1ccc(Cl)c(Cl)c1)N2C")
"high bin"
>>> discrete_label("COC(=O)[C@@H]1C2CCC(C[C@@H]1c1ccc(I)cc1)S2 (some centres not stated)")
"low bin"
>>> discrete_label("COC(=O)C1=C(c2ccc(I)cc2)CC2CCC1S2 (configuration not stated)")
"high bin"
>>> discrete_label("COC(=O)C1=C(c2ccc(Cl)c(Cl)c2)CC2CCC1C2 (configuration not stated)")
"high bin"

QUERY: Lab note: sort `COC(=O)C1=C(c2ccc(Cl)c(Cl)c2)CC2CC[C@H]1O2` into the matching IC50 band.
RESULT: high bin

QUERY: Exam item: assign COC(=O)C1=C(c2ccccc2)CC2CCC1S2 (configuration not stated) to the correct category.
RESULT: high bin

QUERY: GET /class?item= `COC(=O)[C@@H]1[C@H]2CCC(C[C@H]1c1ccc(Cl)c(Cl)c1)N2C`
RESULT: low bin

---

system: Sodium-dependent serotonin transporter (Macaca mulatta, UniProt Q9MYX0)
Sequence (Q9MYX0 whole entry): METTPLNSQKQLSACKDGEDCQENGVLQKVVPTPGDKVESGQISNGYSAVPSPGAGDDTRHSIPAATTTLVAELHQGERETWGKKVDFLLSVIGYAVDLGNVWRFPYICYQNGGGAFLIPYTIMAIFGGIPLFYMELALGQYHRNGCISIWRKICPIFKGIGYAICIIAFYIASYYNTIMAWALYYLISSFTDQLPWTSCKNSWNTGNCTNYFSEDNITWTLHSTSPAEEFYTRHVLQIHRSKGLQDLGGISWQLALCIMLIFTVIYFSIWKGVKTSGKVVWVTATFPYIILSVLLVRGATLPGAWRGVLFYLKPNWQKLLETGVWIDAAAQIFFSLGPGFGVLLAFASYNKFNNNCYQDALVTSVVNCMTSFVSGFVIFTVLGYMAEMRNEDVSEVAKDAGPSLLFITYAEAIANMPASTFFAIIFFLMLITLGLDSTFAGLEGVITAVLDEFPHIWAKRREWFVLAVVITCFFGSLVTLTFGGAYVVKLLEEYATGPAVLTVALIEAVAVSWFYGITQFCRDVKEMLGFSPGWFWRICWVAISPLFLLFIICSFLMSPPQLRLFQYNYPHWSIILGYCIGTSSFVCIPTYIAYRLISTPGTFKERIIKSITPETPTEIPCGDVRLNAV
readout_label: pIC50
Bear in mind: pIC50 is minus log10 of a mol/L concentration; give just that figure.

Use these answered entries as a reference point.
>>> reported_value("COC(=O)[C@@H]1C2CCC(C[C@H]1c1ccc(F)c(Cl)c1)S2 (stereo not given in full)")
6.32
>>> reported_value("COC(=O)[C@@H]1[C@@H]2CCC(C[C@@H]1c1ccc(Cl)c(Cl)c1)S2")
7.05
>>> reported_value("COC(=O)[C@@H]1C2CCC(C[C@@H]1c1ccc(Cl)c(Cl)c1)[S+]2[O-] (stereo not given in full)")
6.92

QUERY: Give the measured pIC50 for `COC(=O)[C@@H]1[C@@H]2CCC(C[C@@H]1c1ccc(Cl)c(Cl)c1)O2`
RESULT: 7.24

QUERY: Please give the documented pIC50 of COC(=O)[C@@H]1C2CCC(C2)C[C@H]1c1ccc(Cl)c(Cl)c1 (stereo not given in full)
RESULT: 6.78

QUERY: Input `COC(=O)[C@@H]1[C@H]2CCC(C[C@H]1c1ccc(Cl)c(Cl)c1)S2` , output reported pIC50.
RESULT: 7.41

QUERY: Using the record for COC(=O)[C@@H]1C2CCC(C[C@@H]1c1ccc(Br)cc1)S2 (stereo not given in full) , state its measured pIC50.
RESULT: 7.85

QUERY: Please give measured pIC50 of the following entry: `COC(=O)[C@H]1[C@@H](c2ccc(Cl)c(Cl)c2)CC2CC[C@H]1O2`
RESULT: 8.33

QUERY: Given the molecule COC(=O)[C@@H]1C2CCC(C[C@H]1c1ccc(Cl)c(F)c1)S2 (stereo not given in full) , write its reported pIC50.
RESULT: 6.15

---

Each entry below carries its recorded Ratio IC50.
Species: Macaca mulatta
measurement_protocol: Selectivity for rhesus monkey DAT over rhesus monkey SERT
// no unit string in output, number only

Below, 3 molecules whose answers are already recorded.
>>> reported_value("COC(=O)[C@@H]1[C@H]2CCC(C[C@H]1c1ccc(Cl)c(Cl)c1)N2C")
68
>>> reported_value("COC(=O)[C@@H]1[C@H]2[C@H](O)CC(C[C@H]1c1ccc(Cl)c(Cl)c1)N2C")
1610
>>> reported_value("COC(=O)C1=C(c2ccc(Cl)c(Cl)c2)CC2CC[C@H]1S2")
1040

QUERY: Look up Ratio IC50 of `COC(=O)[C@@H]1[C@H]2[C@H](O)CC(C[C@@H]1c1ccc(Cl)c(Cl)c1)N2C` and report it.
RESULT: 50

QUERY: Give the measured Ratio IC50 for COC(=O)[C@@H]1C2CCC(C[C@@H]1c1ccc(F)c(F)c1)S2 (stereo not given in full)
RESULT: 7

QUERY: Output measured Ratio IC50 for this item: `COC(=O)[C@H]1[C@@H](c2ccc(Cl)c(Cl)c2)CC2CC[C@H]1O2`
RESULT: 1.4

QUERY: Read off the recorded Ratio IC50 for `COC(=O)C1=C(c2ccc(Cl)c(Cl)c2)CC2CC[C@@H]1O2`
RESULT: 805

---

IC50 tested on Sodium-dependent serotonin transporter (Macaca mulatta): recorded values

Reference set, count: 5
>>> reported_value("COC(=O)C1=C(c2ccccc2)CC2CCC1[S+]2[O-] (stereo unspecified)")
"> 10 µM"
>>> reported_value("COC(=O)C1=C(c2ccc(Cl)c(Cl)c2)CC2C[C@@H](O)[C@H]1N2C")
"5.37 µM"
>>> reported_value("COC(=O)C1=C(c2ccc3ccccc3c2)CC2CCC1S2 (stereo unspecified)")
"> 1 µM"
>>> reported_value("COC(=O)C1=C(c2ccc(F)c(Cl)c2)CC2CCC1S2 (stereo unspecified)")
"> 6 µM"
>>> reported_value("COC(=O)[C@@H]1C2CCC(C[C@@H]1c1ccc(Cl)c(F)c1)S2 (stereo partly specified)")
"0.017 µM"

Now for another entry.
QUERY: Answer with reported IC50 of `COC(=O)C1=C(c2ccc(Cl)c(Cl)c2)CC2CC[C@@H]1S2`
RESULT: 4 µM

---

Organism: Macaca mulatta
measurement_protocol: Selectivity for rhesus monkey DAT over rhesus monkey SERT
Listed below: Ratio IC50 values for each entry.
Respond using a number only.

>>> reported_value("COC(=O)C1=C(c2ccc(Cl)c(Cl)c2)CC2CC[C@@H]1S2")
800
>>> reported_value("COC(=O)[C@@H]1C2CCC(C[C@@H]1c1ccc3ccccc3c1)S2 (stereo partly drawn)")
0.8
>>> reported_value("COC(=O)[C@@H]1C2CCC(C2)C[C@H]1c1ccc(Cl)c(Cl)c1 (stereo partly drawn)")
13

QUERY: Give the value of Ratio IC50 reported for the following: `COC(=O)[C@@H]1[C@@H]2[C@H](O)CC(C[C@@H]1c1ccc(Cl)c(Cl)c1)N2C`
RESULT: 0.05

QUERY: Name the recorded Ratio IC50 of the item COC(=O)[C@@H]1C2CCC(C[C@H]1c1ccc(Br)cc1)S2 (stereo partly drawn) in your answer.
RESULT: 57

QUERY: Output measured Ratio IC50 for this item: COC(=O)[C@@H]1C2CCC(C[C@@H]1c1ccc(Cl)c(Cl)c1)O2 (stereo partly drawn)
RESULT: 2

QUERY: Respond only with Ratio IC50 recorded for `COC(=O)[C@H]1[C@@H](c2ccc(Cl)c(Cl)c2)CC2CC[C@H]1N2C`
RESULT: 2.2

QUERY: Identify the reported Ratio IC50 for the following entry. COC(=O)[C@@H]1C2CCC(C[C@H]1c1ccc(Cl)c(Cl)c1)O2 (stereo partly drawn)
RESULT: 21

QUERY: Tell me Ratio IC50 reported for `COC(=O)[C@@H]1[C@@H]2CCC(C[C@@H]1c1ccc(Cl)c(Cl)c1)O2`
RESULT: 1.2
